// residual activity lookup, one value per entry
target: NUAK family SNF1-like kinase 1 (Homo sapiens) (UniProt O60285); settings: at 1 µM
Sequence (O60285 whole entry): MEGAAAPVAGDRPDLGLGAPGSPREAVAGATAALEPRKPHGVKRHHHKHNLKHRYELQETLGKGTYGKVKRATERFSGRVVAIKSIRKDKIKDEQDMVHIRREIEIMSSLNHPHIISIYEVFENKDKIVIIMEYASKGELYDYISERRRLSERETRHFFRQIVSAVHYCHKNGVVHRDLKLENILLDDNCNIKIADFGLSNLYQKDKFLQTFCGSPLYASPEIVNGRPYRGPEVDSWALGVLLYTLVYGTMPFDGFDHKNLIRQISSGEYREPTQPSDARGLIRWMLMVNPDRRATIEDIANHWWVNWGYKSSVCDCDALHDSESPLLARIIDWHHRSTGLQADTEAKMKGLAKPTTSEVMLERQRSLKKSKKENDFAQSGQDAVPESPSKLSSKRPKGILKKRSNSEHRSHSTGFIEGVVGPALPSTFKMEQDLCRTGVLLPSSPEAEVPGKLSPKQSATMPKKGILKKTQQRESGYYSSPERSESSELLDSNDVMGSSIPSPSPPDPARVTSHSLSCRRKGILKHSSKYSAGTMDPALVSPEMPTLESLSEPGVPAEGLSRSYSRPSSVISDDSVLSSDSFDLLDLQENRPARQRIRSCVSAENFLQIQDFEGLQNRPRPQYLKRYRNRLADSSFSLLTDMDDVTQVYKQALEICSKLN
// return numeric value only (unit: %, not printed)

[[record]]
smiles_input = "CN(C)CCCn1cc(C2=C(c3c[nH]c4ccccc34)C(=O)NC2=O)c2ccccc21"
result_units = "%"
reported = 35

[[record]]
smiles_input = "c1ccc(-c2n[nH]cc2-c2ccnc3ccccc23)nc1"
result_units = "%"
reported = 99

[[record]]
smiles_input = "CC[n+]1c(/C=C/N(C)c2ccccc2)n(-c2ccccc2)c2ccc(-c3nc4ccccc4s3)cc21"
result_units = "%"
reported = 121

[[record]]
smiles_input = "O=c1cc(-c2cccc3c2Sc2ccccc2S3)oc(N2CCOCC2)c1"
result_units = "%"
reported = 102

[[record]]
smiles_input = "CN(C)c1ccc(/C=C2\\C(=O)Nc3ccccc32)cc1"
result_units = "%"
reported = 93


Enquiry: Sample Cc1cc(Nc2nc(-c3ccccc3)nc3ccccc23)n[nH]1 — what was its residual activity?
Return: 3

Enquiry: Quick one: COc1cc2ncnc(N3CCN(C(=O)Nc4ccc(Oc5ccccc5)cc4)CC3)c2cc1OC
Return: 107

Enquiry: Also COc1ccc(S(=O)(=O)N(CCO)c2ccccc2CN(C)C/C=C/c2ccc(Cl)cc2)cc1 , if possible.
Return: 100

Enquiry: And the next one, CC#CC(=O)Nc1cc2c(Nc3ccc(F)c(Cl)c3)ncnc2cn1 ?
Return: 95

---

target: Tyrosine-protein kinase receptor UFO (Homo sapiens) (UniProt P30530); details: at 1 µM
Sequence (P30530 whole entry): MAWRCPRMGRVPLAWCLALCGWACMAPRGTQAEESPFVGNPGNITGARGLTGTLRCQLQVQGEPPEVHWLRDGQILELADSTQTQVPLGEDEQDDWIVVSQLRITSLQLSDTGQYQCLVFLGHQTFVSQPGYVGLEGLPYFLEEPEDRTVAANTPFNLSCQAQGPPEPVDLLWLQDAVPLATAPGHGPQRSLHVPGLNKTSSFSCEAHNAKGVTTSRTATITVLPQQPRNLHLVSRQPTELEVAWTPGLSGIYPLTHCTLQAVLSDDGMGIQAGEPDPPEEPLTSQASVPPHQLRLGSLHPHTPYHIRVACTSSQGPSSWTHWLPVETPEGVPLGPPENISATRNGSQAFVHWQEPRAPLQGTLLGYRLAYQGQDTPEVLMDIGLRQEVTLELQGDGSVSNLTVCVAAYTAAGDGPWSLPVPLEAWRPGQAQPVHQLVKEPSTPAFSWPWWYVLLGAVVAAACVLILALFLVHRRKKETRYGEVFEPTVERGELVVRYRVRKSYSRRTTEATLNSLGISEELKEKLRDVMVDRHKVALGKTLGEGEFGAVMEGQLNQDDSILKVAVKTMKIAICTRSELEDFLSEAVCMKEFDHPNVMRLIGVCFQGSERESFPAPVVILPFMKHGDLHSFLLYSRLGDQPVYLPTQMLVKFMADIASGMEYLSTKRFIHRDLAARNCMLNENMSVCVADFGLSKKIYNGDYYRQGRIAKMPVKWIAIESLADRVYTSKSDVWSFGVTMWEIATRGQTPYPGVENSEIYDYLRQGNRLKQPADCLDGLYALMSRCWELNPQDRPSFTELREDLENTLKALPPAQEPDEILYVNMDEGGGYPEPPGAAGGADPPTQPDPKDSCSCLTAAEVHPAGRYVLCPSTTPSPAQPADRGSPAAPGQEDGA
Item-by-item account of residual activity
Number first, unit second.

[[record]]
smiles_input = "O=c1c2ccccc2[nH]c(=S)n1CCN1CCC(=C(c2ccc(F)cc2)c2ccc(F)cc2)CC1"
reported = "103%"

[[record]]
smiles_input = "Cn1nc2c3c(cccc31)C(=O)c1ccccc1-2"
reported = "90%"

[[record]]
smiles_input = "Oc1ccc(-c2nc(-c3ccc(F)cc3)c(-c3ccncc3)[nH]2)cc1"
reported = "121%"

[[record]]
smiles_input = "CC(=O)c1ccc(N2CCOCC2)cc1O"
reported = "110%"

[[record]]
smiles_input = "Oc1ccc(Nc2nc(-c3ccc(Cl)cc3)cs2)cc1"
reported = "114%"


Enquiry: # query: residual activity of entry CCN(CC)C(=O)c1ccc(Nc2nc(OCC3CCCCC3)c3nc[nH]c3n2)cc1
Return: 27%

Enquiry: How about this molecule: CCN(CC)CCCCN1c2ccccc2Oc2ccc(Cl)cc21
Return: 88%

Enquiry: Also, CO[C@@H]1[C@H](N(C)C(=O)c2ccccc2)C[C@H]2O[C@]1(C)n1c3ccccc3c3c4c(c5c6ccccc6n2c5c31)C(=O)NC4 please.
Return: 14%

---

biological target: Receptor-type tyrosine-protein kinase FLT3 (Homo sapiens); conditions: at 1 µM
Reported residual activity is given for each of the following compounds.
Kindly answer with a numeric value in %, unit omitted.

[[record]]
smiles_input = "Oc1ccc(Nc2nc(-c3ccc(Cl)cc3)cs2)cc1"
reported = 70

[[record]]
smiles_input = "COc1cccc(-c2cc(=O)c3ccccc3o2)c1N"
reported = 87

[[record]]
smiles_input = "COc1ccc(C(=O)Nc2sc3c(c2C(N)=O)CCCC3)cc1OC"
reported = 32

[[record]]
smiles_input = "CNc1cc2c(Nc3cccc(Br)c3)ncnc2cn1"
reported = 119

[[record]]
smiles_input = "CC(=O)O/N=C1\\C(=C2\\C(=O)Nc3cc(Br)ccc32)Nc2ccccc21"
reported = 3

[[record]]
smiles_input = "CC#CC(=O)Nc1cc2c(Nc3ccc(F)c(Cl)c3)ncnc2cn1"
reported = 96


Enquiry: Look up residual activity for this compound: N#Cc1cnc2cnc(NCc3cccnc3)cc2c1Nc1ccc(F)c(Cl)c1
Return: 2

Enquiry: Now the compound N#CC(C#N)=C(N)/C(C#N)=C/c1ccc(O)cc1
Return: 100

Enquiry: Continue with O=C1NC(=O)/C(=C\c2ccc3nccnc3c2)S1
Return: 94

Enquiry: Would you kindly repeat that for COc1cc2ncnc(Nc3ccc(Oc4ccccc4)cc3)c2cc1OC ?
Return: 39

Enquiry: Another compound to look at: Nc1n[nH]c2nnc(-c3c(-c4ccccc4)nn4ccccc34)cc12
Return: 72

Enquiry: Thanks! And Cc1nc2cc3nc(-c4cccs4)cnc3cc2n1C ?
Return: 15

Enquiry: Next compound: CCC(=O)Nc1ccc2ncnc(Nc3cccc(Br)c3)c2c1
Return: 120

Enquiry: Let us now turn to COc1cc2ncc(-c3ccccc3)nc2cc1OC
Return: 57

Enquiry: Let us now turn to COc1ccc(OC)c2c(=S)c3ccccc3[nH]c12
Return: 83

Enquiry: Moving on to the next compound: Nc1nc(Nc2ccc(S(N)(=O)=O)cc2)nn1C(=S)Nc1c(F)cccc1F
Return: 2

Enquiry: Now this one: c1ccc(-c2n[nH]c3c2oc2ccccc23)cc1
Return: 6

Enquiry: Moving on to the next compound: CC[n+]1c(/C=C/N(C)c2ccccc2)n(-c2ccccc2)c2ccc(-c3nc4ccccc4s3)cc21
Return: 77

Enquiry: Same question for Nc1ccc2ncnc(NCCc3ccc(Oc4ccccc4)cc3)c2c1 please.
Return: 33
